Assign TGI to each entry below.
# Test system: SF-268 CNS
# protocol: NCI tumour cell line growth inhibition, 48 h

Task item: Please give the measured TGI for this molecule: Cc1ccc(-c2nc(N3CCCNCC3)c3oc(-c4ccc(C)cc4)nc3n2)cc1
Reply: 3.48 µM

Task item: // lookup TGI for NCc1cc(O)c(O)c(O)c1
Reply: > 100 µM

Task item: Need TGI, item c1ccc(CC2(c3cc4ccccc4[nH]3)OCCO2)nc1
Reply: > 100 µM

Task item: Given the entry CCOP(=O)(OCC)/C(C#N)=C/c1ccnc2ccccc12 , report its measured TGI.
Reply: 56.5 µM

Task item: Need TGI, item O=C(O)CCSC(=O)Nc1ccc(N=Nc2ccccc2)cc1
Reply: > 100 µM

Task item: What does the record list as TGI for CC(CCCOC(c1ccccc1)(c1ccccc1)c1ccccc1)OC(=O)Nc1ccccc1 (stereo unspecified) ?
Reply: 25.9 µM

Task item: // query TGI value for entry C=CS(=O)(=O)CCN1CC1
Reply: > 10 µM

Task item: # TGI lookup, item Nc1nc(N)c2nc(CNc3ccc(C(=O)NC(CCCCNC(=O)c4ccccc4C(=O)O)C(=O)O)cc3)cnc2n1 (stereo unspecified)
Reply: > 100 µM

Task item: Please look up its TGI: c1ccc2cc3c(cc2c1)nc1ccccn13
Reply: > 100 µM

Task item: Entry Oc1ccc(Cl)cc1CNc1nc2ccccc2[nH]1 has what TGI?
Reply: 30.2 µM

Task item: Tell me the measured TGI of CCOC(=O)/C(C#N)=C/c1ccc2c(c1)CC1(C2)Cc2cc(CC)c(C(C)O)cc2C1 (stereo unspecified) , please.
Reply: 32.1 µM

###

# System: SF-295 CNS
# protocol: NCI tumour cell line growth inhibition, 48 h
assay.readout: TGI

Task item: Would you mind telling me what TGI value was observed for COCCOC(=O)C(C)=[N+]=[N-] ?
Reply: > 100 µM

Task item: Return reported TGI; argument: CSc1cccc(NC(=O)OC2CCCCCCCCCCC2)c1
Reply: 57.9 µM

Task item: Find the recorded TGI belonging to CC1=NN(C(=O)CC(=O)Nc2cccc(Cl)c2)C(=O)C1N=Nc1ccc(C(=O)O)cc1 (stereo not given) and report it.
Reply: > 100 µM

Task item: For CCC(=O)N/N=C(\C=C\c1cccc(O)c1)c1sc(Nc2ccc(C)cc2[N+](=O)[O-])nc1C , what is its reported TGI?
Reply: > 100 µM

Task item: Could you share which TGI value was measured for Cc1ccc(-c2nc(N3CCCNCC3)c3oc(-c4ccc(C)cc4)nc3n2)cc1 ?
Reply: 3.54 µM

Task item: Form field: reported TGI of CC1(C)[C@H]2Cc3cc(-c4cc5c(cn4)[C@@H]4C[C@H]([C@@H]5[C@@H]5c6cc(-c7cc8c(cn7)[C@@H]7C[C@H](C8)C7(C)C)ncc6[C@@H]6C[C@H]5C6(C)C)C4(C)C)ncc3[C@@H]1C2
Reply: > 100 µM

Task item: May I ask what TGI has been recorded for Cc1cc2c(cc1Cl)SC(NNc1ccc([N+](=O)[O-])cc1)=NS2(=O)=O ?
Reply: > 10 µM

Task item: Which TGI reading was recorded for the compound Cc1ncc([N+](=O)[O-])n1CCNC(=O)Cn1c([N+](=O)[O-])cnc1C ?
Reply: > 100 µM

Task item: Please look up its TGI: O=C(O)CCSC(=O)Nc1ccc(N=Nc2ccccc2)cc1
Reply: > 100 µM

Task item: Sample COc1cc2c(cc1OC)C(=O)N(NC1=NCCN1)C2=O — what was its TGI?
Reply: > 100 µM
